Reference source: ChEMBL document CHEMBL3632472

tested_system: UniProtKB O75908
Sequence (O75908 whole entry): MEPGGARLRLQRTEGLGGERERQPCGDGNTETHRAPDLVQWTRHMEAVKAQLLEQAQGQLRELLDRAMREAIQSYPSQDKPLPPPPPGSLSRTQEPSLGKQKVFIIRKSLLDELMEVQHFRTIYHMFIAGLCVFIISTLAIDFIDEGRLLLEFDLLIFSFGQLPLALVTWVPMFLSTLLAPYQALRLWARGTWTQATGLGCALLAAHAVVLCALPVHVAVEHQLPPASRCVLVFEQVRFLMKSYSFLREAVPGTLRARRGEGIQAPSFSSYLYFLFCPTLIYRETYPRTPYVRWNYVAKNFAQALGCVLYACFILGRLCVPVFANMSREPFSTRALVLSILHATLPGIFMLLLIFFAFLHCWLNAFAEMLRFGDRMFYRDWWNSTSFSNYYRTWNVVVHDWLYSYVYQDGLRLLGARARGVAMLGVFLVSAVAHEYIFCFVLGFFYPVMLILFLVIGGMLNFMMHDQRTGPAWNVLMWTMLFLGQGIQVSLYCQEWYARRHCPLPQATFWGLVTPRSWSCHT
protocol: Inhibition of human ACAT2 expressed in CHO cells assessed as inhibition of [3H]cholesterol ester accumulation at 5 uM in presence of 0.1 mM [3H]oleate-conjugated BSA
Format: cell-based
Calls of active or inactive are those of the source. The rule behind the calls is not given here.
endpoint_name: inhibition

Consider the worked cases shown below.
In [3]: df
Out[3]:
                                   molecule  endpoint_name  recorded_result
0  O=C(NCCc1ccc(O)c(Br)c1)/C(Cc1ccc(O)c(Br)c1)=N\O [HEMIBASTADIN 1]     inhibition         inactive
1  O=C1NCCc2ccc(O)c(c2)Oc2ccc(cc2Br)CCNC(=O)/C(=N/O)Cc2cc(Br)c(O)c(c2)Oc2c(Br)cc(cc2Br)C/C1=N\O     inhibition         inactive
2  O=C1NCCc2ccc(O)c(c2)Oc2c(Br)cc(cc2Br)CCNC(=O)/C(=N/O)Cc2cc(Br)c(O)c(c2)Oc2c(Br)cc(cc2Br)C/C1=N\O [BASTADIN 16]     inhibition              61%
3  O=C1NCCc2cc(Br)c(O)c(c2)Oc2ccc(cc2Br)CCNC(=O)/C(=N\O)Cc2cc(Br)c(O)c(c2)Oc2c(Br)cc(cc2Br)C/C1=N/O [BASTADIN 5]     inhibition         inactive

Next molecule, inhibition to be filled in.
Entry O=C1NCCc2cc(Br)c(O)c(c2)Oc2c(Br)cc(cc2Br)CCNC(=O)/C(=N/O)Cc2cc(Br)c(O)c(c2)Oc2c(Br)cc(cc2Br)C/C1=N\O [BASTADIN 6] — recorded inhibition = 87%
